Counter-ions that a name gives are not always drawn.
Recorded melting point for the following molecules

Study these solved cases before continuing.
N#C[C@@]1(c2cncc(Br)c2)C[C@H]2C=C[C@@H](C1)N2 | 152 to 153 °C
CC(C)(C)OC(=O)N1[C@@H]2CC[C@H]1C[C@](C#N)(c1cncc(Br)c1)C2 | 125 to 127 °C
N#C[C@@]1(c2cncc(I)c2)C[C@H]2C=C[C@@H](C1)N2C1COC1 | 170 to 171 °C
N#C[C@@]1(c2cncc(Br)c2)C[C@H]2CC[C@@H](C1)N2 | 128 to 130 °C

Indicate its recorded melting point; the molecule in question is N#C[C@@]1(c2cncc(Br)c2)C[C@H]2CC[C@@H](C1)N2 (as salt: TFA)
176 to 178 °C

State, in one line, measured melting point of `N#C[C@@]1(c2cncc(F)c2)C[C@H]2C=C[C@@H](C1)N2C1CCC1`
91 to 93 °C
